Biological target: T1, full-length human Regnase-1 with a FLAG tag on the N-terminal side and a biotin ligase BirA recognition … (human, UniProt Q5D1E8 1-599, biotinylated where required ; Biotinylated at the BirA recognition sequence where required. That sequence is not in the letters.)
T1 sequence: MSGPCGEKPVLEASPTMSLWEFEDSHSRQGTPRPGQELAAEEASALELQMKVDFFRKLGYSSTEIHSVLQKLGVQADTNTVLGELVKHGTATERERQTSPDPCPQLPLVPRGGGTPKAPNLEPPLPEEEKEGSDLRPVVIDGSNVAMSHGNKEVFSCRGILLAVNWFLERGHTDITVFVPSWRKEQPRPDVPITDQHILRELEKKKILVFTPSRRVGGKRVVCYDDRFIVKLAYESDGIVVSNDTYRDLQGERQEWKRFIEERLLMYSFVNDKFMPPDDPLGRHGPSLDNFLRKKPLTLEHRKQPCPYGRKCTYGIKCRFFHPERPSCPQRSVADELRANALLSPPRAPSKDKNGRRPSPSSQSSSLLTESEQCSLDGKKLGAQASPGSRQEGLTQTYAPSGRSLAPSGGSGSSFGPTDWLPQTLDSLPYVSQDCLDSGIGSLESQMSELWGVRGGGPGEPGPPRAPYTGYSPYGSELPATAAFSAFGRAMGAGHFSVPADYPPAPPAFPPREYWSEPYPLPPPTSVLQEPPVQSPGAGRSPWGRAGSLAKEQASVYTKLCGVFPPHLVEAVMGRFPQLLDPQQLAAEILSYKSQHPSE
Test: cell-based or functional assay
Positions of bridges follow the written chain, without caps; N, C: chain ends. Non-standard residues stand in square brackets, D forms with d. No end group written: not given here. NMeA = CN[C@@H](C)C(=O)O
MEASURED ENDPOINT: IC50, phosphorylation by IKKβ (µM)
The reply should be a number in µM, with the unit left off.

// solved cases for IC50, phosphorylation by IKKβ follow
[NMeA]DIWFDYWDWD (lactam N-11) [PP17] = 0.5
[NMeA]RFRQWKWVYPD (lactam N-12) [PP13] = 3.6
[NMeA]RFGVWSWIYPD (lactam N-12) [PP14] = 1.6

IN: # query: IC50, phosphorylation by IKKβ of entry [NMeA]NSWYRIWGLD (lactam N-11) [PP22]
OUT: 15

src = patent US20220125891A1
